Form field: pIC50 (one value per entry).
# System: A375 cells (parental)
# methodNotes: Dose-response curves and IC50, PrestoBlue cell viability, 72 h
# Format: cell-based, human
# conditionSet: Homo sapiens, A-375, n.e. = did not suppress growth below 50% in the tested concentration range, read-out: Half-maximal inhibitory concentration value (IC50), Mean
pIC50: −log10 of the molar value.
assayReadout: pIC50

CC(C)CC(=O)Nc1[nH]nc2c1CN(C(=O)C1CCN(C)CC1)C2(C)C [PHA-793887, reference compound]; 6.24
CC(=O)c1c(C)c2cnc(Nc3ccc(N4CCNCC4)cn3)nc2n(C2CCCC2)c1=O [Palbociclib]; 5.27
NC(=O)Nc1cc(-c2cccc(F)c2)sc1C(=O)N[C@H]1CCCNC1 [AZD7762]; 6.51
CC(C)(C)c1nc(-c2cccc(NS(=O)(=O)c3c(F)cccc3F)c2F)c(-c2ccnc(N)n2)s1 [Dabrafenib]; 8.72
